# assay-details: Plasma stability assay
# Format: in vitro ADME, human
# condition-label: human, 10 μM
Numbered stars: 1 amine (or outer) side, 2 acyl side, 3 side chain; on linkers, the order of the positions; unused ones are H or OH. Bridge positions count the residues as written; N and C are the ends. Square brackets hold non-standard residues; d marks the D form. Peptide text beside a SMILES is read from it. * marks the point of attachment. Piperazine(2S-CO,4-Me) = CN1CCN[C@H](C(=O)O)C1; Phe(3-Me) = Cc1cccc(C[C@H](N)C(=O)O)c1; X4 = O=C1CN([*:1])[C@H](C(=O)[*:2])CN1; NH(4-Cl-2-F-phenyl) = Fc1cc(Cl)ccc1N*; Pro(4R-Me) = C[C@H]1CN[C@H](C(=O)O)C1; X1 = O=C([C@@H]1CSCCN1[*:1])[*:2]; Hyp = O=C(O)[C@@H]1C[C@@H](O)CN1; NH(4-Et-phenyl) = CCc1ccc(N*)cc1; aThr = C[C@H](O)[C@H](N)C(=O)O; Pip = O=C(O)[C@@H]1CCCCN1; X3 = c1cc2c(cc1N*)OCCO2; CO = O=C([*:1])[*:2]; X2 = Fc1cc(N*)ccc1Cl
Label scheme for Human: lower than 40 h is no, 40 h and above is yes.

[[record]]
compound = "Cc1cccc(C[C@H](NC(=O)Nc2ccc(Cl)cc2F)C(=O)N[C@@H]2C(=O)N3CCC[C@H]3C(=O)N3CC(=O)NC[C@H]3C(=O)N[C@@H](C)C(=O)N3C[C@H](C)C[C@H]3C(=O)O[C@H]2C)c1 [Compound 20] ({NH(4-Cl-2-F-phenyl)-CO}-[Phe(3-Me)][aThr]P[X4]A[Pro(4R-Me)]; ester 2-C)"
answer_label = "no"

[[record]]
compound = "Cc1cccc(C[C@H](NC(=O)Nc2ccc(Cl)c(F)c2)C(=O)N[C@H]2COC(=O)[C@@H]3C[C@@H](C)CN3C(=O)[C@H](C)NC(=O)[C@@H]3CN(C)CCN3C(=O)[C@@H]3CCCN3C2=O)c1 [Compound 14] ({X2-CO}-[Phe(3-Me)]SP[Piperazine(2S-CO,4-Me)]A[Pro(4R-Me)]; ester 2-C)"
answer_label = "yes"

[[record]]
compound = "Cc1cccc(C[C@H](NC(=O)Nc2ccc(Cl)cc2F)C(=O)N[C@@H]2C(=O)N3C[C@H](O)C[C@H]3C(=O)N3CCN(C)C[C@H]3C(=O)N[C@@H](C)C(=O)N3C[C@H](C)C[C@H]3C(=O)O[C@H]2C)c1 [Compound 31] ({NH(4-Cl-2-F-phenyl)-CO}-[Phe(3-Me)][aThr][Hyp][Piperazine(2S-CO,4-Me)]A[Pro(4R-Me)]; ester 2-C)"
answer_label = "yes"


Request: Evaluate Cc1cccc(C[C@H](NC(=O)Nc2ccc(Cl)cc2F)C(=O)N[C@@H]2C(=O)N3C[C@H](O)C[C@H]3C(=O)N3CCCC[C@H]3C(=O)N[C@@H](C)C(=O)N3C[C@H](C)C[C@H]3C(=O)O[C@H]2C)c1 [Compound 6] ({NH(4-Cl-2-F-phenyl)-CO}-[Phe(3-Me)][aThr][Hyp][Pip]A[Pro(4R-Me)]; ester 2-C) : Human at minimum 40 h?
Result: yes

Request: Try CCc1ccc(NC(=O)N[C@@H](Cc2cccc(C)c2)C(=O)N[C@@H]2C(=O)N3C[C@H](O)C[C@H]3C(=O)N3CCCC[C@H]3C(=O)N[C@@H](C)C(=O)N3C[C@H](C)C[C@H]3C(=O)O[C@H]2C)cc1 [Compound 25] ({NH(4-Et-phenyl)-CO}-[Phe(3-Me)][aThr][Hyp][Pip]A[Pro(4R-Me)]; ester 2-C) next.
Result: yes

Request: Repeat for the following compound: Cc1cccc(C[C@H](NC(=O)Nc2ccc3c(c2)OCCO3)C(=O)N[C@@H]2C(=O)N3C[C@H](O)C[C@H]3C(=O)N3CCCC[C@H]3C(=O)N[C@@H](C)C(=O)N3C[C@H](C)C[C@H]3C(=O)O[C@H]2C)c1 [Compound 28] ({X3-CO}-[Phe(3-Me)][aThr][Hyp][Pip]A[Pro(4R-Me)]; ester 2-C)
Result: yes

Request: Note, next up: Cc1cccc(C[C@H](NC(=O)Nc2ccc(Cl)cc2F)C(=O)N[C@H]2COC(=O)[C@@H]3C[C@@H](C)CN3C(=O)[C@H](C)NC(=O)[C@@H]3CCCCN3C(=O)[C@@H]3CCCN3C2=O)c1
Result: no

Request: Another compound: Cc1cccc(C[C@H](NC(=O)Nc2ccc(Cl)c(F)c2)C(=O)N[C@@H]2C(=O)N3CCC[C@H]3C(=O)N3CCCC[C@H]3C(=O)N[C@@H](C)C(=O)N3C[C@H](C)C[C@H]3C(=O)O[C@H]2C)c1 [Compound 35] ({X2-CO}-[Phe(3-Me)][aThr]P[Pip]A[Pro(4R-Me)]; ester 2-C)
Result: yes

Request: Consider next the compound Cc1cccc(C[C@H](NC(=O)Nc2ccc(Cl)cc2F)C(=O)N[C@@H]2C(=O)N3CCC[C@H]3C(=O)N3CCSC[C@H]3C(=O)N[C@@H](C)C(=O)N3C[C@H](C)C[C@H]3C(=O)O[C@H]2C)c1 [Compound 38] ({NH(4-Cl-2-F-phenyl)-CO}-[Phe(3-Me)][aThr]P[X1]A[Pro(4R-Me)]; ester 2-C) in the same way.
Result: yes
